Test system: KB-3-1
Assay: Cytotoxic Profiling of Annotated Libraries Using Quantitative High-Throughput Screening (AID 1296008); further: nearly all actives have a fitted effect of over 60% in size
Conditions: Five cell lines viability, CellTiter-Glo ATP luminescence, 48-72 h
Inconclusive results are not listed. Active and inactive are the calls of the source. The call rests on the fitted dose curve; in most records, active means well fitted inhibition curve with a large enough effect; inconclusive means small, poorly fitted or top-dose-only effect; inactive means flat fitted curve, though single readings scatter.
Result category, one only: active, inactive

Test call for this compound, please: CC(=O)O[C@@H]1c2c3c(cc(O)c2C(=O)O[C@@H]1C)O[C@@]1(C)[C@@H](O)C[C@H]2C(C)(C)C(=O)C=C[C@]2(C)[C@@H]1C3
inactive

Test call for this compound, please: COc1ccc(/C=C\C(=O)O)c(O[C@@H]2O[C@H](CO)[C@@H](O)[C@H](O)[C@H]2O)c1
inactive

Others:
Test call for this compound, please: C=CC(C)(C)c1[nH]c2cc3c(cc2c1CC1NC(=O)C2=CCCN2C1=O)C=CC(C)(C)O3 (configuration not stated)
inactive

Test call for this compound, please: C=C1[C@H](OC(C)=O)[C@H]2[C@@H](OC(C)=O)[C@](C)(OC(C)=O)C[C@]2(OC(C)=O)C(=O)[C@H](C)/C=C/C(C)(C)C(=O)[C@H](OC(=O)C(C)CC)[C@H]1OC(C)=O (some centres not stated)
inactive

Test call for this compound, please: CC(=O)N1CCN(C(=O)Cc2ccc(Nc3ncc(F)c(Nc4ccc(C(=O)Nc5ccccc5Cl)cc4)n3)cc2)CC1
active

Test call for this compound, please: O=C(O)c1cn(C2CC2)c2cc(N3C[C@@H]4C[C@H]3CN4)c(F)cc2c1=O
inactive

Test call for this compound, please: CCN(CC)c1ccc2c(O)c(C=Nc3ccc(CC(=O)O)c(-c4c5c(nc6ccccc46)CCC(C(=O)NN)C5)c3)c(=O)oc2c1 (configuration not stated)
active

###

Test system: Tov-21-G
Assay: Primary qHTS to identify gynecologic anti-cancer compounds using libraries of approved drugs and bioactive compounds (AID 1345084); further: on the % scale 0 is the no-effect control and ±100 the full control effect; nearly all actives have a fitted effect of over 55% in size
Conditions: Gynecologic cancer cell panel viability, ATPlite luminescence, 48 h; series mostly up to 57.5 µM
Records with an inconclusive call do not appear. Active and inactive are the calls of the source. Calls follow the shape of the dose curve; as a rule, active = well fitted cell-killing curve with a large enough effect; inconclusive = small, poorly fitted or top-dose-only effect, or effect the other way; inactive = flat fitted curve, though single readings scatter.
Parameter measured: outcome

Lab entry: Tov-21-G assay, compound C[C@@H]1O[C@@H](O[C@H]2[C@H](O)[C@@H](O)[C@H](OC3CCC4(C)C5CCC(C)(C(CO)OC6OC(CO)C(O)C(O)C6O)CC5=CCC4C3(C)C)O[C@@H]2CO)[C@H](O)[C@H](O)[C@H]1O (stereo partly drawn) , outcome = inactive

Lab entry: Tov-21-G assay, compound CC1CC[C@]2(C(=O)O)CC[C@]3(C(=O)O)C(=CCC4[C@@]5(C)CC[C@H](OC6OC(C)C(O)C(OC7OC(CO)C(O)C(O)C7O)C6O)C(C)(C)C5CC[C@]43C)C2C1C (stereo partly drawn) , outcome = inactive

Lab entry: Tov-21-G assay, compound C=C(C(=O)O)C1CC(O)C2(C)CCCC(=C)C2C1 (stereo not drawn) , outcome = inactive

###

Tested on: KB-3-1
Experiment: Cytotoxic Profiling of Annotated Libraries Using Quantitative High-Throughput Screening (AID 1296008); further: nearly all actives have a fitted effect of over 60% in size; on max response: on the % scale 0 is the no-effect control and ±100 the full control effect
Details: Five cell lines viability, CellTiter-Glo ATP luminescence, 48-72 h; stronger effect = lower value
Inconclusive results are not listed. Activity calls are given as the source filed them. Calls follow the shape of the dose curve; as a rule, active = well fitted inhibition curve with a large enough effect; inconclusive = small, poorly fitted or top-dose-only effect; inactive = flat fitted curve, though single readings scatter.
Parameter measured: max response

Worked cases, max response given:
Quick note, max response for CNC(=S)NS(=O)(=O)c1cc(CCNC(=O)c2cc(Cl)ccc2OC)ccc1OC landed at -4.17% (inactive)

Quick note, max response for CC1(C)CC2C(C1)C(C)(O)C13CC1(COC3=O)C2O (stereo not given) landed at -11% (inactive)

Quick note, max response for CCc1ccc(Cc2ccc3c(c2)[C@]2(OC3)O[C@H](CO)[C@@H](O)[C@H](O)[C@H]2O)cc1 landed at -4.58% (inactive)

Quick note, max response for COC(=O)C1(C)CCC2(C(=O)O)CCC3(C)C(=CCC4C5(C)CC(O)C(OC6OCC(O)C(O)C6O)C(C)(CO)C5CCC43C)C2C1 (stereo not given) landed at 9.85% (inactive)

Quick note, max response for CC(C)c1nnc(-c2ccc(-c3ccccc3)nc2)n1-c1cccc2nonc12 landed at 2.23% (inactive)

Below are some compounds; for each one, tell me its max response.
1. CC(C)c1cc2c(c(O)c1O)[C@@]13CCCC(C)(C)[C@@H]1[C@H](OC3=O)C2=O
2. CC(C)CC(=O)O[C@@H]1OC=C(CO[C@@H]2O[C@H](CO)[C@@H](O)[C@H](O)[C@H]2O)[C@H]2[C@@H]3O[C@H]3[C@@](O)(CO)[C@@H]12
3. CC1=CC(=O)CC(C)(CO)C1(O)/C=C/C(C)O[C@@H]1O[C@H](CO)[C@@H](O)[C@H](O)[C@H]1O (stereo not given in full)

-17.1% (inactive)
6.77% (inactive)
-2.84% (inactive)

Below are some compounds; for each one, tell me its max response.
1. COc1ccc(/C=C/C(=O)O[C@H]2[C@H](O[C@H]3[C@@H]4C=CO[C@@H](O[C@@H]5O[C@H](CO)[C@@H](O)[C@H](O)[C@H]5O)[C@@H]4[C@@]4(CO)O[C@@H]34)O[C@@H](C)[C@H](O)[C@H]2OC(C)=O)cc1
2. C1CCC[C@H]2CCCN3CC[C@@H](CCCCCC[C@@H]4CCCN5CC[C@@H](CC1)O[C@@H]45)O[C@@H]23
3. COc1ccc(-c2ccc(-c3cn(C(=O)N4CCCCC4c4ccccc4)nn3)cc2)cc1 (stereo not given)

4.98% (inactive)
8.9% (inactive)
-8.19% (inactive)

Below are some compounds; for each one, tell me its max response.
1. O=C(Nc1nc2ccccc2n1CCc1ccccc1)c1ccccc1
2. COc1cc(/C=C/CO)cc(OC)c1O[C@@H]1O[C@H](CO[C@@H]2O[C@H](CO)[C@@H](O)[C@H](O)[C@H]2O)[C@@H](O)[C@H](O)[C@H]1O
3. C[C@@H]1O[C@@H](O[C@H]2[C@H](OC(=O)[C@]34CCC(C)(C)C[C@H]3C3=CCC5[C@@]6(C)CC[C@H](O[C@@H]7O[C@H](C(=O)O)[C@@H](O)[C@H](O)[C@H]7O[C@@H]7O[C@H](CO)[C@H](O)[C@H](O)[C@H]7O)[C@@](C)(C=O)C6CC[C@@]5(C)[C@]3(C)C[C@H]4O)O[C@H](C)[C@H](O[C@@H]3O[C@H](C)[C@H](O)[C@H](O)[C@H]3O)[C@@H]2O)[C@H](O)[C@H](O)[C@H]1O[C@@H]1OC[C@@H](O)[C@H](O[C@@H]2O[C@H](CO)[C@@H](O)[C@H](O)[C@H]2O)[C@H]1O (stereo not given in full)
4. C=C1CCC2C(C)(C(=O)OC)CCCC2(C)C1CCC(C)CC(=O)O (stereo not given)
5. CC1(C)CC[C@]2(C(=O)O[C@@H]3O[C@H](CO[C@@H]4O[C@H](CO)[C@@H](O)[C@H](O)[C@H]4O[C@@H]4O[C@H](CO)[C@H](O)[C@H](O)[C@H]4O)[C@@H](O)[C@H](O[C@@H]4O[C@H](CO)[C@@H](O)[C@H](O)[C@H]4O)[C@H]3O)CC[C@]3(C)C(=CCC4[C@@]5(C)CC[C@H](O[C@@H]6OC[C@@H](O)[C@H](O)[C@H]6O)[C@@](C)(C(=O)O)C5CC[C@]43C)[C@@H]2C1 (stereo not given in full)
6. CC1COC(Nc2ccc3ncnc(Nc4ccc(OCc5nccs5)c(Cl)c4)c3c2)=N1 (stereo not given)
7. CC(=O)OC1CC2(C)C3=CCC4(C)C5C(O)C(O)C(C(C)C)C5(C)CCC4(C)C3CCC2C(C)(C)C1OC1OC(CO)C(O)C(O)C1O (stereo not given)

1. 5.59% (inactive)
2. 9.56% (inactive)
3. 9.53% (inactive)
4. 0.0997% (inactive)
5. 4.92% (inactive)
6. -8.52% (inactive)
7. 2.57% (inactive)

Below are some compounds; for each one, tell me its max response.
1. Cc1cc(C(=O)Nc2cccc(C(=O)Nc3cccc(C(F)(F)F)c3)c2)on1
2. CC1=CC(=O)CC(C)(C)[C@@]1(O)CC[C@@H](C)O[C@@H]1O[C@H](CO)[C@@H](O)[C@H](O)[C@H]1O

1. -0.787% (inactive)
2. 1.23% (inactive)

Below are some compounds; for each one, tell me its max response.
1. COc1cccc2cc3c(c(O[C@@H]4O[C@H](CO[C@@H]5O[C@H](CO)[C@@H](O)[C@H](O)[C@H]5O)[C@@H](O)[C@H](O)[C@H]4O)c12)C(C)OC3=O (stereo not given in full)
2. COCCOc1ccc(N2CCN(CCn3ncc4c3nc(N)n3nc(-c5ccco5)nc43)CC2)cc1
3. CC(CCC1(O)OC2CC3C4CCC5CC(O[C@@H]6O[C@H](CO)[C@@H](O)[C@H](O)[C@H]6O[C@@H]6O[C@@H](C)[C@H](O)[C@@H](O)[C@H]6O)C(O)CC5(C)C4CCC3(C)C2C1C)CO[C@@H]1O[C@H](CO)[C@@H](O)[C@H](O)[C@H]1O (stereo not given in full)
4. CC1(C)CCC(C)(C)c2cc(C3(c4ccc(C(=O)O)cc4)OCCO3)ccc21
5. CC(=O)CCC1=C(C)C(O[C@@H]2O[C@H](CO)[C@@H](O)[C@H](O)[C@H]2O)C(O)CC1(C)C (stereo not given in full)

9.17% (inactive)
-29.2% (inactive)
-6.35% (inactive)
9.31% (inactive)
1.06% (inactive)

Data provenance is PubChem BioAssay (NCATS).
